# protocol-summary: molar heat capacity at saturation pressure
# assay-setup: 341.65 K; Liquid
± gives the expanded uncertainty stated by the source.
metric-name: molar heat capacity

ClCCCCCCCl :: 253.7 ± 2 J/K/mol
ClCCCCl :: 164.1 ± 1.3 J/K/mol

Looking for the measured molar heat capacity of ClCCCCCCl , can you help?
223.58 ± 1.7 J/K/mol

Report molar heat capacity for ClCCCl please.
132.96 ± 1 J/K/mol

Would you kindly share the measured molar heat capacity for ClCCCCCl ?
192.36 ± 1.5 J/K/mol

* * *

# protocol-summary: molar heat capacity at saturation pressure
# assay-setup: 336.66 K; Liquid
Mark rule met for molar heat capacity under 200 J/K/mol, rule not met if at or over.

ClCCCCl [1,3-dichloropropane] :: rule met
ClCCCCCCCl [1,6-dichlorohexane] :: rule not met
ClCCCCCl [1,4-dichlorobutane] :: rule met
ClCCCCCCl [1,5-dichloropentane] :: rule not met

Input ClCCCl [1,2-dichloroethane] ; condition: molar heat capacity strictly below 200 J/K/mol. Does it hold?
rule met

* * *

# protocol-summary: molar heat capacity at saturation pressure
# assay-setup: 304.16 K; Liquid
Decision: molar heat capacity compared against 200 J/K/mol; not below it gives label 1, below it gives label 0.

Before answering, review these 4 worked examples.
ClCCCCCCl :: label 1
ClCCCCl :: label 0
ClCCCCCl :: label 0
ClCCCl :: label 0

Let us examine a further case.
For this compound, is measured molar heat capacity 200 J/K/mol or higher? ClCCCCCCCl
label 1

* * *

Listed compounds paired with reported molar heat capacity
# protocol-summary: molar heat capacity at saturation pressure
# assay-setup: 311.66 K; Liquid
Response body: numeric value in J/K/mol, unit text excluded.

ClCCCCCl :: 186.41

Name the reported molar heat capacity value associated with the compound ClCCCCl
159.23

What value of molar heat capacity has been reported for the following compound? ClCCCl
130.16

molar heat capacity lookup needed for ClCCCCCCl , thanks.
215.96

Look up molar heat capacity for this compound: ClCCCCCCCl
244.27

* * *

# protocol-summary: molar heat capacity at saturation pressure
# assay-setup: 289.15 K; Liquid
Listing: molar heat capacity of selected compounds
Express the result in J/K/mol but write the number alone.

// returns reported molar heat capacity for input ClCCCl
128.39

* * *

# protocol-summary: molar heat capacity at saturation pressure
# assay-setup: 346.65 K; Liquid
± gives the expanded uncertainty stated by the source.
Listed here are compounds together with their documented molar heat capacity.

These solved cases illustrate the format of a correct answer.
ClCCCl [1,2-dichloroethane] :: 133.59 ± 1 J/K/mol
ClCCCCCCCl [1,6-dichlorohexane] :: 255.12 ± 2 J/K/mol
ClCCCCl [1,3-dichloropropane] :: 165.1 ± 1.3 J/K/mol

Field request: molar heat capacity | item: ClCCCCCCl [1,5-dichloropentane]
225.01 ± 1.7 J/K/mol

Recorded molar heat capacity of ClCCCCCl [1,4-dichlorobutane] , please.
193.63 ± 1.5 J/K/mol

* * *

# protocol-summary: molar heat capacity at saturation pressure
# assay-setup: 326.65 K; Liquid
Numbers after ± are expanded uncertainties.
metric-name: molar heat capacity
Kindly write the number and append the unit.

ClCCCCCl [1,4-dichlorobutane] :: 189.48 ± 1.5 J/K/mol
ClCCCCCCl [1,5-dichloropentane] :: 219.91 ± 1.7 J/K/mol
ClCCCCCCCl [1,6-dichlorohexane] :: 248.95 ± 1.9 J/K/mol
ClCCCCl [1,3-dichloropropane] :: 161.59 ± 1.2 J/K/mol

Now for another entry.
Which molar heat capacity value belongs to ClCCCl [1,2-dichloroethane] ?
131.56 ± 1 J/K/mol

* * *

# protocol-summary: molar heat capacity at saturation pressure
# assay-setup: 324.16 K; Liquid
metric-name: molar heat capacity (J/K/mol)
# unit: J/K/mol | format: bare number

Could you tell me which molar heat capacity is on file for ClCCCCCl ?
188.85

Query: molar heat capacity; subject: ClCCCl
131.2

# molar heat capacity lookup, item ClCCCCl
161.01

What measured molar heat capacity goes with ClCCCCCCl ?
219

Endpoint output: molar heat capacity of ClCCCCCCCl . Value?
247.78

* * *

# protocol-summary: molar heat capacity at saturation pressure
# assay-setup: 334.15 K; Liquid
As shown below, each of these compounds has a reported molar heat capacity value.
Report the figure in J/K/mol without appending any unit label.

Illustrative cases are given below, each with its answer.
ClCCCCCCCl :: 251.24
ClCCCl :: 132.24
ClCCCCCCl :: 221.76
ClCCCCCl :: 190.99

Now consider the entry below.
Please look up its molar heat capacity: ClCCCCl
162.96

* * *

# protocol-summary: molar heat capacity at saturation pressure
# assay-setup: 289.15 K; Liquid
metric-name: molar heat capacity (J/K/mol)
The reply should contain only the number, in J/K/mol.

ClCCCCCCCl :: 237.89
ClCCCCl :: 155.76
ClCCCCCCl :: 210.65

Entry under review: ClCCCCCl . Reported molar heat capacity?
182.15
